- TEST METHOD NOTES: Cytotoxicity against human P4R5 MAGI cells after 2 hrs by MTT assay
- Assay type: cell-based
Field: CC50 at 2 h. Provide a value for each of the compounds that follow.

In: Which CC50 at 2 h value belongs to Cc1cn([C@H]2C[C@H](F)[C@@H](COC(=O)CCCCCCC(=O)OC[C@H]3O[C@@H](n4cc(C)c(=O)[nH]c4=O)C[C@@H]3F)O2)c(=O)[nH]c1=O ?
Out: > 160 µM

In: Which CC50 at 2 h value belongs to Nc1ccn([C@@H]2CS[C@H](COC(=O)CCCCCCC(=O)OC[C@@H]3O[C@H](n4ccc(N)nc4=O)CS3)O2)c(=O)n1 ?
Out: > 168 µM

In: Which CC50 at 2 h value belongs to Cc1cn([C@H]2C[C@H](N=[N+]=[N-])[C@@H](COC(=O)CCCCCCC(=O)OC[C@H]3O[C@@H](n4cc(C)c(=O)[nH]c4=O)C[C@@H]3N=[N+]=[N-])O2)c(=O)[nH]c1=O ?
Out: > 148 µM

In: Which CC50 at 2 h value belongs to Cc1cn([C@H]2C[C@H](F)[C@@H](CO)O2)c(=O)[nH]c1=O ?
Out: > 410 µM

In: Which CC50 at 2 h value belongs to Nc1ccn([C@@H]2CS[C@H](COC(=O)CCCCCCCCCCCCC(=O)OC[C@@H]3O[C@H](n4cc(F)c(N)nc4=O)CS3)O2)c(=O)n1 ?
Out: > 43 µM

In: Which CC50 at 2 h value belongs to Cc1cn([C@H]2C[C@H](F)[C@@H](COC(=O)CCCCCCCCCCCCC(=O)OC[C@@H]3O[C@H](n4cc(F)c(N)nc4=O)CS3)O2)c(=O)[nH]c1=O ?
Out: > 42 µM

====

- TEST METHOD NOTES: Cytotoxicity against human P4R5 MAGI cells after 2 hrs by MTT assay
- Type: cell-based
Field: CC50 at 2 h. Provide a value for each of the compounds that follow.

In: Which CC50 at 2 h value belongs to Nc1nc(=O)n([C@@H]2CS[C@H](CO)O2)cc1F ?
Out: > 200 µM

In: Which CC50 at 2 h value belongs to Cc1cn([C@H]2C[C@H](N=[N+]=[N-])[C@@H](COC(=O)CCC(=O)OC[C@@H]3O[C@H](n4ccc(N)nc4=O)CS3)O2)c(=O)[nH]c1=O ?
Out: > 173 µM

In: Which CC50 at 2 h value belongs to Cc1cn([C@H]2C[C@H](N=[N+]=[N-])[C@@H](CO)O2)c(=O)[nH]c1=O ?
Out: > 374 µM

In: Which CC50 at 2 h value belongs to Nc1ccn([C@@H]2CS[C@H](CO)O2)c(=O)n1 ?
Out: 80.3 µM

In: Which CC50 at 2 h value belongs to Cc1cn([C@H]2C[C@H](F)[C@@H](COC(=O)CCC(=O)OC[C@H]3O[C@@H](n4cc(C)c(=O)[nH]c4=O)C[C@@H]3F)O2)c(=O)[nH]c1=O ?
Out: > 175 µM

In: Which CC50 at 2 h value belongs to Cc1cn([C@H]2C[C@H](N=[N+]=[N-])[C@@H](COC(=O)CCC(=O)OC[C@H]3O[C@@H](n4cc(C)c(=O)[nH]c4=O)C[C@@H]3N=[N+]=[N-])O2)c(=O)[nH]c1=O ?
Out: > 162 µM

In: Which CC50 at 2 h value belongs to Cc1cn([C@H]2C[C@H](F)[C@@H](COC(=O)CCC(=O)OC[C@@H]3O[C@H](n4ccc(N)nc4=O)CS3)O2)c(=O)[nH]c1=O ?
Out: > 180 µM

====

- TEST METHOD NOTES: Cytotoxicity against human P4R5 MAGI cells after 2 hrs by MTT assay
- Format: cell-based
RECORDED ENDPOINT: CC50 at 2 h

In: Which CC50 at 2 h value belongs to Cc1cn([C@H]2C[C@H](N=[N+]=[N-])[C@@H](COC(=O)CCC(=O)OC[C@H]3O[C@@H](n4cc(C)c(=O)[nH]c4=O)C[C@@H]3F)O2)c(=O)[nH]c1=O ?
Out: > 168 µM

In: Which CC50 at 2 h value belongs to Cc1cn([C@H]2C[C@H](F)[C@@H](COC(=O)CCCCCCCCCCCCC(=O)OC[C@@H]3O[C@H](n4ccc(N)nc4=O)CS3)O2)c(=O)[nH]c1=O ?
Out: > 43 µM

In: Which CC50 at 2 h value belongs to Cc1cn([C@H]2C[C@H](F)[C@@H](COC(=O)CCCCCCCCCCCCC(=O)O)O2)c(=O)[nH]c1=O ?
Out: > 61 µM
